# Experiment description: SU-DIPG-XXV glioma cell viability, MIPE5.0 library, qHTS (AID 1347068);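 for IC50: cells exposed to compound for 48 hours before viability readout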
Records with an inconclusive call do not appear. The source made the active and inactive calls. No cut-off is given here; in the data, nearly all actives have IC50 up to about 30 µM.
# output must be one of TRUE for active, FALSE for inactive

Past entries and their recorded results:
[
  {
    "Compound": "NCC1(CC(=O)O)CCCCC1",
    "Classification": "FALSE"
  },
  {
    "Compound": "C[C@]12COC(=O)C[C@@H]1CC[C@@H]1[C@@H]2CC[C@@]2(C)[C@H]1CC[C@]2(C)O",
    "Classification": "FALSE"
  },
  {
    "Compound": "COC[C@H]1OC(=O)c2coc3c2[C@@]1(C)C1=C(C3=O)[C@@H]2CC[C@H](O)[C@@]2(C)C[C@H]1OC(C)=O",
    "Classification": "FALSE"
  },
  {
    "Compound": "O=C1CC[C@@]2(O)[C@H]3Cc4ccc(O)c5c4[C@@]2(CCN3CC2CC2)[C@H]1O5",
    "Classification": "FALSE"
  },
  {
    "Compound": "CCC1(c2ccc(N)cc2)CCC(=O)NC1=O (centres undefined)",
    "Classification": "FALSE"
  }
]

**Query** What did this assay record as the result for `CC(C)(O)/C=C\C(=O)[C@](C)(O)[C@H]1[C@H](O)C[C@]2(C)[C@@H]3CC=C4[C@@H](C=C(O)C(=O)C4(C)C)[C@]3(C)C(=O)C[C@@]12C` ?
**Result** TRUE

====

# Study target: Calcium-dependent protein kinase 4 (Plasmodium falciparum (isolate 3D7))
# Experiment description: PfCDPK4 kinase inhibitors, biochemical, TCAMS library (AID 1159588)
# Measurement conditions: recombinant PfCDPK4, Kinase-Glo ATP depletion luminescence
Measured potencies and affinities stand elsewhere. Active and inactive are the calls of the source. No cut-off is given here; in the data, nearly all actives have IC50 up to about 0.91 µM.
Measurement type: outcome

Worked cases, outcome given:
[
  {
    "Compound": "CCN(CC)CCN1C(=O)C(O)(c2ccccc2Cl)c2c1cc(C(N)=O)cc2C(F)(F)F (stereo not given)",
    "outcome": "inactive"
  },
  {
    "Compound": "COc1ccc(C[C@H](C)NC[C@H](O)c2cccc(Cl)c2)cc1F",
    "outcome": "inactive"
  },
  {
    "Compound": "O=C(/C=C/c1ccc(Cl)c(Cl)c1)N1CCC(CN2CCC(c3c(-c4ccccc4)[nH]c4ccccc34)CC2)CC1",
    "outcome": "inactive"
  },
  {
    "Compound": "O=C1Nc2cccc3c2C1(CCCCCN1CC=C(c2c[nH]c4ccccc24)CC1)CCC3 (stereo not given)",
    "outcome": "inactive"
  },
  {
    "Compound": "CCCCCC(C)C(C)c1cc(O)c2c3c(c(=O)oc2c1)CN(Cc1ccccc1)CC3 (stereo not given)",
    "outcome": "inactive"
  }
]

**Query** Dear colleague, I am looking for the recorded outcome of the following compound: `Cc1cccc(N2CCN(Cc3cc(Cl)ccc3O)CC2)c1C`
**Result** inactive

**Query** Dear colleague, I am looking for the recorded outcome of the following compound: Cc1ccc(-n2nc(C)c3c2NC(=O)CSC3c2ccsc2)cc1 (stereo not given)
**Result** inactive

**Query** Dear colleague, I am looking for the recorded outcome of the following compound: C=CC12CCN(CC1)C(C(O)c1ccnc3ccc(OC)cc13)C2 (stereo not given)
**Result** inactive

**Query** Dear colleague, I am looking for the recorded outcome of the following compound: `CN1CC=C(c2c[nH]c3ccc(OC(=O)c4ccccc4)cc23)C1`
**Result** inactive

**Query** Dear colleague, I am looking for the recorded outcome of the following compound: C#CCN1CCC2=C(C1)c1c(O)cc(C(C)C(C)CCc3ccc(F)cc3)cc1OC2(C)C (stereo not given)
**Result** inactive
